Attribute: aptazyme ON/OFF ratio
B1: Pistol ribozyme (parent)
chain: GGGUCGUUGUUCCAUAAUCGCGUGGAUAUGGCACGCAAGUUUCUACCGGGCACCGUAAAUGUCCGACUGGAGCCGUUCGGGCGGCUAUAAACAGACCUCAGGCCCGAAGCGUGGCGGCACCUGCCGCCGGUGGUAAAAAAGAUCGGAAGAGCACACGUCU

Variants of: B1
test_method_notes: aptazyme ON/OFF ratio, guanine; higher = stronger switching; co-transcriptional cleavage with and without guanine
assay_readout: aptazyme ON/OFF ratio

> print(dat)
                        variant.key  readout.number
 1           U7A G9A U10C U11G C12G             1.3
 2       U7A U8A G9A U10C U11G C13G            1.24
 3                U8A G9C U11A C12G            1.22
 4           U7G G9U U10A C12G C13A            1.09
 5           U7G U8A U10A U11A C13A             1.2
 6  U7G U8C G9A U10A U11C C12G C13A            1.08
 7      U8A G9U U10C U11C C12A C13U            1.04
 8           U7C G9A U10G U11C C12A            1.28
 9      U7A G9A U10G U11A C12U C13A            1.09
10            U7A U8G G9A U10A C12G            1.53
11          U8C U10G U11G C12U C13G            1.12
12                U7G U8A U11G C13U            1.21
13           U8A G9C U10A C12U C13U           0.997
14  U7A U8A G9A U10A U11A C12A C13A            1.35
15                U7A G9C U10C C13U            1.22
16       U7G U8G G9U U10C U11C C12G            1.46
17      U7G U8A U10C U11G C12G C13A            1.26
18          U7G U10A U11C C12U C13U            1.08
19           U7G U8A U10G U11A C13U             1.4
20            U7C U8G G9C U10A C12U            1.17
21       U7C U8C G9C U10C U11C C13G            1.12
22       U7C U8C G9A U10G U11A C13G            1.25
